Sourced from the supplement of paper PMC10567573

B1: ALDH8A1 (parent)
chain: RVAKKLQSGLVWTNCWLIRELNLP

variants of: B1; assay: protein stability index of a GFP-peptide fusion (GPS, HEK-293T) (PSI 1-6); higher = more stable; conditions: c terminus: a fixed tail appended;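 note: lentivirally expressed fusions sorted by FACS into six bins by GFP to DsRed ratio, PSI derived from sequencing read proportions per bin multiplied by bin number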
readout_kind: protein stability index
Lab note: record the figure alone, no unit after it.

INSERT INTO assay_data (variant_id, observed_measurement) VALUES
  ('W12S', 2.38);

Task item: Which value of protein stability index has been reported for `K5C` in the records?
Reply: 3.67

Task item: What do you get for `K4R` ?
Reply: 2.29
